Target: hEP3D (Homo sapiens (Human), UniProt P43115)
Sequence (P43115 other isoform, or with tags, fused parts or gaps): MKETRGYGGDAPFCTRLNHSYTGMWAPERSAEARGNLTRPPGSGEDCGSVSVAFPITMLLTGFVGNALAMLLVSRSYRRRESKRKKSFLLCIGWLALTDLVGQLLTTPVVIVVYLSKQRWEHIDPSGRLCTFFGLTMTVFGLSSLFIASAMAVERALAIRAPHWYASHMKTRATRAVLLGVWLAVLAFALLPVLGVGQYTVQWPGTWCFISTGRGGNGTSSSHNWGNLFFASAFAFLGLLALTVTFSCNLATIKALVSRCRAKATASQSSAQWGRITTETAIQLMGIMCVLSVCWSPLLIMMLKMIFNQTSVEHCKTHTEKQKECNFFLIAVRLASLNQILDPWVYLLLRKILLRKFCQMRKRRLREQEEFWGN
pIC50: −log10 of the molar value.
# binarize pIC50: threshold 6 inclusive, high side Met, low side Not met

// below: answered compounds
Item CCCCC[C@H](O)/C=C/[C@@H]1[C@@H](C/C=C\CCCC(=O)O)C(=O)C(C)(C)[C@H]1O with pIC50 of 6 or above? Met

Item CC1(C)C(=O)[C@H](C/C=C\CCCC(=O)O)[C@@H](/C=C/C(O)CCc2ccccc2)[C@@H]1O (single isomer, unassigned) [Compound 53] with pIC50 of 6 or above? Not met

Item CC1(C)C(=O)[C@H](C/C=C\CCCC(=O)O)[C@@H](/C=C/C(O)Cc2cc3ccccc3s2)[C@@H]1O (single isomer, unassigned) with pIC50 of 6 or above? Not met

Item CCCCC[C@H](O)/C=C/[C@@H]1[C@@H](CC#CCCCC(=O)O)C(=O)C(C)(C)[C@H]1O with pIC50 of 6 or above? Not met

Others:
Item COC(=O)CCC/C=C\C[C@H]1C(=O)C(C)(C)[C@@H](O)[C@@H]1/C=C/C(O)CCc1ccccc1 (single isomer, unassigned) with pIC50 of 6 or above? Not met

Item CC1(C)C(=O)[C@H](C/C=C\CCCC(=O)O)[C@@H](/C=C/C(O)CCc2ccccc2)[C@@H]1O (single isomer, unassigned) [Compound 52] with pIC50 of 6 or above? Met

Item CCCCC[C@H](O)/C=C/[C@@H]1[C@@H](C/C=C\CCCC(=O)OC)C(=O)C(C)(C)[C@H]1O with pIC50 of 6 or above? Not met

----------
Target: hEP3D (Homo sapiens (Human), UniProt P43115)
Test: Radioligand binding ([3H]PGE2), HEK-293 cell membranes expressing EP3 receptor
Settings: top number in Table 2
MEASURED QUANTITY: hEP3D radioligand binding IC50

Please review the following examples before continuing.
# hEP3D radioligand binding IC50 lookup, item CC1(C)C(=O)[C@H](C/C=C\CCCC(=O)O)[C@@H](/C=C/C(O)Cc2ccccc2)[C@@H]1O (single isomer, unassigned) [Compound 47] > 10 µM

# hEP3D radioligand binding IC50 lookup, item CC1(C)C(=O)[C@H](C/C=C\CCCC(=O)O)[C@@H](/C=C/C(O)Cc2cc3ccccc3s2)[C@@H]1O (single isomer, unassigned) > 10 µM

As a next step, examine the compound that follows.
# hEP3D radioligand binding IC50 lookup, item CC1(C)C(=O)[C@H](C/C=C\CCCC(=O)O)[C@@H](/C=C/C(O)Cc2ccccc2)[C@@H]1O (single isomer, unassigned) [Compound 46] > 10 µM

----------
Target: hEP4 (Homo sapiens (Human), UniProt P35408)
Sequence (P35408 whole entry, looked up): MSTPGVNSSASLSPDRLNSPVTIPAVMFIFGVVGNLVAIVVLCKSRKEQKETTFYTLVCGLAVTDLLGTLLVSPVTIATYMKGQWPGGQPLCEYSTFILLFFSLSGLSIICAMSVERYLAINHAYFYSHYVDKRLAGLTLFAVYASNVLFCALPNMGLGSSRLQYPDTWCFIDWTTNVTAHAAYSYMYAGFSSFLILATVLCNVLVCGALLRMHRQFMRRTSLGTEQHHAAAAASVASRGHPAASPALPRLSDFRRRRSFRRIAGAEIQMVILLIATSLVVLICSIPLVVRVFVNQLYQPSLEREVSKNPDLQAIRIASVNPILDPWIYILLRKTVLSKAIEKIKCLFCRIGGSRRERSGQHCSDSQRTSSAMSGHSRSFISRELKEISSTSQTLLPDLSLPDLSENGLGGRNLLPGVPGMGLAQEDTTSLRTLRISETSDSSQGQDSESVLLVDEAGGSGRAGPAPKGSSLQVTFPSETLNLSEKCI
MEASURED QUANTITY: IC50 (nM)
One number for each entry, in nM.

# IC50 lookup, item COC(=O)CCC/C=C\C[C@H]1C(=O)C(C)(C)[C@@H](O)[C@@H]1/C=C/C(O)Cc1ccccc1 (single isomer, unassigned) 45

# IC50 lookup, item CC1(C)C(=O)[C@H](C/C=C\CCCC(N)=O)[C@@H](/C=C/C(O)Cc2cc3ccccc3s2)[C@@H]1O (single isomer, unassigned) 5000

# IC50 lookup, item CCCCC[C@H](O)/C=C/[C@@H]1[C@@H](CC#CCCCC(=O)O)C(=O)C(C)(C)[C@H]1O 400

# IC50 lookup, item COC(=O)CCC/C=C\C[C@H]1C(=O)C(C)(C)[C@@H](O)[C@@H]1/C=C/C(O)CCc1sc2ccccc2c1Cl (single isomer, unassigned) [Compound 38] 2700

# IC50 lookup, item COC(=O)CCC/C=C\C[C@H]1C(=O)C(C)(C)[C@@H](O)[C@@H]1/C=C/C(O)CCc1sc2ccccc2c1Cl (single isomer, unassigned) [Compound 39] 2300

As a next step, examine the molecule that follows.
# IC50 lookup, item CC1(C)C(=O)[C@H](C/C=C\CCCC(=O)O)[C@@H](/C=C/C(O)Cc2cc3ccccc3s2)[C@@H]1O (single isomer, unassigned) [Compound 54] 20

----------
Target: UniProt:P43115
Test: Radioligand binding ([3H]PGE2), HEK-293 cell membranes expressing EP3 receptor
Conditions: top number in Table 2
MEASURED QUANTITY: hEP3D radioligand binding IC50

Please review the following examples before continuing.
Kindly state the measured hEP3D radioligand binding IC50 obtained for CC1(C)C(=O)[C@H](SCCCSCC(=O)O)[C@@H](/C=C/C(O)CCc2sc3ccccc3c2Cl)[C@@H]1O (single isomer, unassigned) [Compound 23] with UniProt:P43115. > 10 µM

Kindly state the measured hEP3D radioligand binding IC50 obtained for CC1(C)C(=O)[C@H](SCCCSCC(=O)O)[C@@H](/C=C/C(O)CCc2sc3ccccc3c2Cl)[C@@H]1O (single isomer, unassigned) [Compound 24] with UniProt:P43115. >>10K

Others:
Kindly state the measured hEP3D radioligand binding IC50 obtained for COC(=O)CCC/C=C\C[C@H]1C(=O)C(C)(C)[C@@H](O)[C@@H]1/C=C/C(O)Cc1cc2ccccc2s1 (single isomer, unassigned) [Compound 70] with UniProt:P43115. > 10 µM

----------
Target: UniProt:P43115
Assay: FLIPR calcium signal, HEK-293(EBNA) cells expressing hEP3A/Gqi5
Conditions: bottom number in Table 2, read-out: hEP3A functional EC50
MEASURED QUANTITY: pEC50
Numbers only, as −log10 of the molar value.

# pEC50 lookup, item CCCCC[C@H](O)/C=C/[C@@H]1[C@@H](C/C=C\CCCC(=O)O)C(=O)C(C)(C)[C@H]1O 8.34

# pEC50 lookup, item CCCCC[C@H](O)/C=C/[C@@H]1[C@@H](CC#CCCCC(=O)OC)C(=O)C(C)(C)[C@H]1O 6.25

# pEC50 lookup, item CC1(C)C(=O)[C@H](C/C=C\CCCC(=O)O)[C@@H](/C=C/C(O)Cc2ccccc2)[C@@H]1O (single isomer, unassigned) 6.23

# pEC50 lookup, item CCCCC[C@H](O)/C=C/[C@@H]1[C@@H](CC#CCCCC(=O)O)C(=O)C(C)(C)[C@H]1O 7.96

As a next step, examine the molecule that follows.
# pEC50 lookup, item CCCCC[C@H](O)/C=C/[C@@H]1[C@@H](C/C=C\CCCC(=O)OC)C(=O)C(C)(C)[C@H]1O 6.27

----------
Hi! I'm sharing some IC50 results obtained with hTP (Homo sapiens (Human), UniProt P21731).
Sequence (P21731 whole entry): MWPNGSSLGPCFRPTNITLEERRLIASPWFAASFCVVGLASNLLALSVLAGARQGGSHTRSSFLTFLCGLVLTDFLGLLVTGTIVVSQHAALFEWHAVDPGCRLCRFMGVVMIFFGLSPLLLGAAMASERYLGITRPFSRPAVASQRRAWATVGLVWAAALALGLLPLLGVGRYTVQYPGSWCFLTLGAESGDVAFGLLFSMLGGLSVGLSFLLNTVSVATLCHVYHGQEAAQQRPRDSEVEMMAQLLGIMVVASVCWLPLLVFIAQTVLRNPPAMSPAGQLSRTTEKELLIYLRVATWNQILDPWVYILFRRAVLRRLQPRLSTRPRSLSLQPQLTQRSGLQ
One number for each entry, in nM.

# IC50 lookup, item CCCCC[C@H](O)/C=C/[C@@H]1[C@@H](CC#CCCCC(=O)O)C(=O)C(C)(C)[C@H]1O [Compound 43] 18

# IC50 lookup, item CCCCC[C@H](O)/C=C/[C@@H]1[C@@H](C/C=C\CCCC(=O)OC)C(=O)C(C)(C)[C@H]1O [Compound 45] 631

As a next step, examine the molecule that follows.
# IC50 lookup, item CCCCC[C@H](O)/C=C/[C@@H]1[C@@H](C/C=C\CCCC(=O)O)C(=O)C(C)(C)[C@H]1O [Compound 44] 18

----------
Target: hEP4 (Homo sapiens (Human), UniProt P35408)
Please use 1.0 for IC50 under 200 nM and 0.0 for everything else, ties included.

// below: answered compounds
Report whether reported IC50 is lower than 200 nM (strictly) for CCCCC[C@H](O)/C=C/[C@@H]1[C@@H](C/C=C\CCCC(=O)OC)C(=O)C(C)(C)[C@H]1O [Compound 45] 0.0

Report whether reported IC50 is lower than 200 nM (strictly) for COC(=O)CSCCCS[C@H]1C(=O)C(C)(C)[C@@H](O)[C@@H]1/C=C/C(O)CCc1sc2ccccc2c1Cl (single isomer, unassigned) [Compound 22] 0.0

Report whether reported IC50 is lower than 200 nM (strictly) for COC(=O)CCC/C=C\C[C@H]1C(=O)C(C)(C)[C@@H](O)[C@@H]1/C=C/C(O)CCc1ccccc1 (single isomer, unassigned) [Compound 51] 0.0

Report whether reported IC50 is lower than 200 nM (strictly) for CC1(C)C(=O)[C@H](C/C=C\CCCC(=O)O)[C@@H](/C=C/C(O)CCc2ccccc2)[C@@H]1O (single isomer, unassigned) [Compound 53] 1.0

Report whether reported IC50 is lower than 200 nM (strictly) for COC(=O)CSCCCS[C@H]1C(=O)C(C)(C)[C@@H](O)[C@@H]1/C=C/C(O)CCc1sc2ccccc2c1Cl (single isomer, unassigned) [Compound 21] 1.0

Report whether reported IC50 is lower than 200 nM (strictly) for CC1(C)C(=O)[C@H](CC#CCCCC(=O)O)[C@@H](/C=C/C(O)CCc2sc3ccccc3c2Cl)[C@@H]1O (single isomer, unassigned) [Compound 37] 1.0

Others:
Report whether reported IC50 is lower than 200 nM (strictly) for CC1(C)C(=O)[C@H](C/C=C\CCCC(=O)O)[C@@H](/C=C/C(O)CCc2ccccc2)[C@@H]1O (single isomer, unassigned) [Compound 52] 1.0

Report whether reported IC50 is lower than 200 nM (strictly) for COC(=O)CCC/C=C\C[C@H]1C(=O)C(C)(C)[C@@H](O)[C@@H]1/C=C/C(O)Cc1cc2ccccc2s1 (single isomer, unassigned) [Compound 71] 0.0

Report whether reported IC50 is lower than 200 nM (strictly) for CC1(C)C(=O)[C@H](C/C=C\CCCC(=O)O)[C@@H](/C=C/C(O)Cc2ccccc2)[C@@H]1O (single isomer, unassigned) [Compound 46] 1.0

Where do these numbers come from? They come from patent US9156810B2.
